test system: rodent lifetime carcinogenesis bioassay, tumor incidence TD50; test: carcinogenic potency in animals, long-term in vivo studies, CPDB compilation (AID 1745844); conditions: rat; strain Wistar; males; inhaled; site: liver; lesion: angioma; dosed 52 weeks; study length 125 weeks

smiles_repr | TD50
C=CCl | 3620 mg/kg/day

---

test system: rodent lifetime carcinogenesis bioassay, tumor incidence TD50; assay: carcinogenic potency in animals, long-term in vivo studies, CPDB compilation (AID 1745844); settings: mouse; strain Swiss albino; males; in drinking water; site: aorta and large arteries; lesion: leiomyosarcoma; dosed 120 weeks; study length 120 weeks

smiles_repr | target_or_test_system | TD50
NNc1ccc(C(=O)O)cc1 | rodent lifetime carcinogenesis bioassay, tumor incidence TD50 | 609 mg/kg/day

---

test system: rodent lifetime carcinogenesis bioassay, tumor incidence TD50; test: carcinogenic potency in animals, long-term in vivo studies, CPDB compilation (AID 1745844); conditions: mouse; strain C57BL/10J; males; in feed; site: pylorus; lesion: adenomatous polyp; dosed 104 weeks; study length 104 weeks
quantity_name: TD50

smiles_repr | test_value
CC(=O)O[C@]1(C(C)=O)CC[C@H]2[C@@H]3C=C(Cl)C4=CC(=O)[C@@H]5C[C@@H]5[C@]4(C)[C@H]3CC[C@@]21C | 31.6 mg/kg/day

---

system: rodent lifetime carcinogenesis bioassay, tumor incidence TD50; experiment: carcinogenic potency in animals, long-term in vivo studies, CPDB compilation (AID 1745844); conditions: rat; strain Charles River CD (Sprague-Dawley); males; in feed; site: liver; lesion: hepatocellular carcinoma; dosed 58 weeks; study length 95 weeks
quantity_name: TD50

compound | test_value
C=CC(O)c1ccc2c(c1)OCO2 (stereo unspecified) | 47.8 mg/kg/day

---

system: rodent lifetime carcinogenesis bioassay, tumor incidence TD50; assay: carcinogenic potency in animals, long-term in vivo studies, CPDB compilation (AID 1745844); conditions: rat; strain ACI; both sexes; in feed; site: colorectum; lesion: squamous-cell carcinoma; dosed 94 weeks; study length 94 weeks
quantity_name: TD50

smiles_repr | quantity_name | test_value
CCOC(=O)c1ccc(N)cc1 | TD50 | 1760 mg/kg/day

---

test system: rodent lifetime carcinogenesis bioassay, tumor incidence TD50; test: carcinogenic potency in animals, long-term in vivo studies, CPDB compilation (AID 1745844); settings: rat; strain F344/DuCrj; females; in feed; site: oral cavity; lesion: squamous-cell carcinoma; dosed 72 weeks; study length 72 weeks

smiles_repr | TD50
Cn1c(N)nc2c3cccnc3ccc21 | 195 mg/kg/day

---

test system: rodent lifetime carcinogenesis bioassay, tumor incidence TD50; assay: carcinogenic potency in animals, long-term in vivo studies, CPDB compilation (AID 1745844); conditions: rat; strain F344/DuCrj; males; in feed; site: forestomach; lesion: squamous-cell carcinoma; dosed 60 weeks; study length 60 weeks

smiles_repr | target_or_test_system | TD50 [mg/kg/day]
Oc1ccc2c(c1)OCO2 | rodent lifetime carcinogenesis bioassay, tumor incidence TD50 | 3920

---

system: rodent lifetime carcinogenesis bioassay, tumor incidence TD50; assay: carcinogenic potency in animals, long-term in vivo studies, CPDB compilation (AID 1745844); conditions: mouse; strain B6C3F1; males; in feed; site: liver; lesion: hepatocellular adenoma + hepatocellular carcinoma + neoplastic nodule; dosed 80 weeks; study length 93 weeks
quantity_name: TD50 (mg/kg/day)

compound | test_value
ClC1C2(Cl)C3C4C5OC5C5C4C1(Cl)C(Cl)(C53)C2(Cl)Cl (stereo unspecified) | 1.96

---

test system: rodent lifetime carcinogenesis bioassay, tumor incidence TD50; test: carcinogenic potency in animals, long-term in vivo studies, CPDB compilation (AID 1745844); details: rat; strain Sprague-Dawley Spartan; females; inhaled; site: mammary gland; lesion: adenocarcinoma; dosed 52 weeks; study length 104 weeks
Active and inactive are the calls of the source. The rule behind the calls is not given here.

smiles_repr | TD50
ClCCl | 1140 mg/kg/day (inactive)

---

test system: rodent lifetime carcinogenesis bioassay, tumor incidence TD50; assay: carcinogenic potency in animals, long-term in vivo studies, CPDB compilation (AID 1745844); details: rat; strain Wistar; females; in feed; site: all sites; lesion: leukemia; dosed 96 weeks; study length 96 weeks

smiles_repr | TD50 / mg/kg/day
CN(C)N=O | 1.46

---

test system: rodent lifetime carcinogenesis bioassay, tumor incidence TD50; experiment: carcinogenic potency in animals, long-term in vivo studies, CPDB compilation (AID 1745844); settings: mouse; strain B6C3F1; males; inhaled; site: liver; lesion: hepatoblastoma + hepatocellular carcinoma; dosed 104 weeks; study length 104 weeks
quantity_name: TD50 (mg/kg/day)

smiles_repr | quantity_name | unit_symbol | test_value
C=CC(=C)Cl | TD50 | mg/kg/day | 19.5

---

test system: rodent lifetime carcinogenesis bioassay, tumor incidence TD50; experiment: carcinogenic potency in animals, long-term in vivo studies, CPDB compilation (AID 1745844); details: rat; strain ACI/n; males; in feed; site: stomach, glandular; lesion: adenoma; dosed 68 weeks; study length 68 weeks

smiles_repr | unit_symbol | TD50
O=C1c2ccccc2C(=O)c2c(O)cccc21 | mg/kg/day | 3340

---

tested on: rodent lifetime carcinogenesis bioassay, tumor incidence TD50; experiment: carcinogenic potency in animals, long-term in vivo studies, CPDB compilation (AID 1745844); conditions: rat; strain Wistar; females; inhaled; site: Zymbal's gland; lesion: squamous-cell carcinoma; dosed 52 weeks; study length 52 weeks
quantity_name: TD50

smiles_repr | test_value
C=CCl | 857 mg/kg/day

---

tested on: rodent lifetime carcinogenesis bioassay, tumor incidence TD50; experiment: carcinogenic potency in animals, long-term in vivo studies, CPDB compilation (AID 1745844); details: mouse; strain CD-1 HaM/ICR; females; in feed; site: lung; lesion: several types; types named in the paper; dosed 77 weeks; study length 90 weeks
Activity calls are given as the source filed them. No rule for the calls is given here.

smiles_repr | TD50
Nc1ccc(Cc2ccc(N)c(Cl)c2)cc1Cl | 556 mg/kg/day (inactive)
Nc1ccccc1N | 2260 mg/kg/day (inactive)
COc1ccc(OC)c(/C=C/c2ccc(N)cc2)c1 | 152 mg/kg/day (inactive)
Cc1ccc(N)cc1N | 72 mg/kg/day (inactive)

---

tested on: rodent lifetime carcinogenesis bioassay, tumor incidence TD50; assay: carcinogenic potency in animals, long-term in vivo studies, CPDB compilation (AID 1745844); settings: mouse; strain CTM; males; in feed; site: lung; lesion: one or several types; types not named; dosed 40 weeks; study length 73 weeks
Activity calls are given as the source filed them. The rule behind the calls is not given here.

smiles_repr | TD50
O=[N+]([O-])c1ccc(-c2cnc3ccccn23)o1 | 763 mg/kg/day (inactive)

---

test system: rodent lifetime carcinogenesis bioassay, tumor incidence TD50; assay: carcinogenic potency in animals, long-term in vivo studies, CPDB compilation (AID 1745844); settings: mouse; strain B6C3F1; females; in feed; site: lung; lesion: alveolar/bronchiolar adenoma + alveolar/bronchiolar carcinoma; dosed 104 weeks; study length 105 weeks
quantity_name: TD50 (mg/kg/day)

smiles_repr | test_value
Cc1ccc(OP(=O)(Oc2ccc(C)cc2)Oc2ccc(C)cc2)cc1 | 2310
O=Nc1ccc(NO)cc1 | 6660
CN(C)NC(=O)CCC(=O)O | 2920

---

tested on: rodent lifetime carcinogenesis bioassay, tumor incidence TD50; experiment: carcinogenic potency in animals, long-term in vivo studies, CPDB compilation (AID 1745844); conditions: rat; strain Sprague-Dawley; males; inhaled; site: any site (literature study); lesion: malignant tumor; dosed 52 weeks; study length 95 weeks
Activity calls are given as the source filed them. How the calls were made is not given here.
quantity_name: TD50

smiles_repr | target_or_test_system | quantity_name | test_value
CC(C)[N+](=O)[O-] | rodent lifetime carcinogenesis bioassay, tumor incidence TD50 | TD50 | 23.6 mg/kg/day (inactive)

---

tested on: rodent lifetime carcinogenesis bioassay, tumor incidence TD50; assay: carcinogenic potency in animals, long-term in vivo studies, CPDB compilation (AID 1745844); conditions: rat; strain Fischer 344/Mai fBR; males; inhaled; site: adrenal gland; lesion: pheochromocytoma; dosed 76 weeks; study length 78 weeks
The source made the active and inactive calls. No rule for the calls is given here.
quantity_name: TD50

smiles_repr | target_or_test_system | test_value
C1CO1 | rodent lifetime carcinogenesis bioassay, tumor incidence TD50 | 26.1 mg/kg/day (inactive)

---

system: rodent lifetime carcinogenesis bioassay, tumor incidence TD50; assay: carcinogenic potency in animals, long-term in vivo studies, CPDB compilation (AID 1745844); conditions: mouse; strain (C3H x RIII)F1 (MTV+); females; in feed; site: mammary tissue, wider than the gland; lesion: one or several types; types not named; dosed 104 weeks; study length 104 weeks
TD50: recorded values
quantity_name: TD50 (mg/kg/day)

molecule | test_value
C#C[C@]1(C(C)=O)CC[C@H]2[C@@H]3CCC4=C[C@@H](C(C)=O)CC[C@@H]4[C@H]3CC[C@@]21C (tested in a mixture with another compound) | 0.858
C#C[C@]1(O)CC[C@H]2[C@@H]3CCC4=C(CCC(=O)C4)[C@H]3CC[C@@]21C | 2.13

---

test system: rodent lifetime carcinogenesis bioassay, tumor incidence TD50; experiment: carcinogenic potency in animals, long-term in vivo studies, CPDB compilation (AID 1745844); settings: rat; strain Fischer 344; males; by gavage; site: pancreas; lesion: acinar-cell adenoma; dosed 103 weeks; study length 105 weeks
quantity_name: TD50 (mg/kg/day)

smiles_repr | unit_symbol | test_value
COc1c2occc2cc2ccc(=O)oc12 | mg/kg/day | 113
